# PROCEDURE_DETAILS: ATG_TAL_CIS: Attagene CIS-FACTORIAL HepG2 Assay for human TAL Basal Promoter (AID 2282966);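 further: background control endpoint measuring basal TAL promoter reporter mRNA not a specific factor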
# MEASUREMENT_CONDITIONS: HepG2 Attagene cis-factorial TAL promoter reporter; actives raise or lower the signal
Active and inactive are the calls of the source. How the source made its calls: active means hit-call score of the fitted dose curve at least 0.9, where 1 is the maximum; inactive means score below 0.9.
API: response.call in 1 (active), 0 (inactive)

Query :: Please let me know the test result on file for CCCNC(=O)NS(=O)(=O)c1ccc(Cl)cc1 .
Result :: 0

Query :: Recorded test outcome, item C=CCOCC(O)CCl (centres undefined)
Result :: 0

Query :: For this compound, state the assay outcome: CCOC(=O)N1CCC(=C2c3ccc(Cl)cc3CCc3cccnc32)CC1
Result :: 1

Query :: Dear colleague, could you share the recorded outcome for Cc1ccc(OC(=O)CC(C)C)cc1 when you have a moment?
Result :: 0

Query :: Give the logged outcome of this assay for the following compound: COCCCOCCCOC
Result :: 0

Query :: Short answer needed: outcome of this test for Nc1ccc(Cl)cc1Cl ?
Result :: 0

Query :: State the result this test recorded for CCCCC/C=C\C/C=C\CCCCCCCC(=O)OC .
Result :: 0

Query :: Short answer needed: outcome of this test for FC(F)(F)C(=NOCC1OCCO1)c1ccc(Cl)cc1 ?
Result :: 0

Query :: Test call for this compound, please: O=C(Nc1cccc(C(F)(F)F)c1)c1cc(Br)cc(Br)c1O
Result :: 1

Query :: Each compound tested received a call. Report the one for CC1=CC[C@H]2C[C@@H]1C2(C)C .
Result :: 0

Query :: Outcome? O=C(O)C(c1ccc(Cl)cc1)c1ccc(Cl)cc1
Result :: 0

Query :: What did the test return for O=c1[nH]c(=O)c2[nH]c(=O)[nH]c2[nH]1 ?
Result :: 0

Query :: Dear all, I need the recorded test outcome for CN(C)CCCN(C)C , thank you.
Result :: 0

Query :: What did this assay record as the result for CCOC(=O)Cc1cccc2ccccc12 ?
Result :: 0

====

# Read-out: Monocyte Chemoattractant Protein-1 (MCP1), CCL2 (gene 6347)
# PROCEDURE_DETAILS: BSK_4H_MCP1: BioMAP Diversity Plus: 4H Assay for Monocyte Chemoattractant Protein-1 (MCP1) Biomarker Activity (AID 2283018)
# MEASUREMENT_CONDITIONS: primary human endothelial cells (HUVEC); actives raise or lower the signal
The source made the active and inactive calls. Rule for the calls: active = hit-call score of the fitted dose curve at least 0.9, where 1 is the maximum; inactive = score below 0.9.
// allowed return values: YES = active, NO = inactive

Query :: Can you look up the reported call for CCCCC(CC)COC(=O)c1ccccc1O (stereo not drawn) for me?
Result :: YES

Query :: Tell me the recorded outcome of this test for CC(C)(c1cc(Br)c(OCCO)c(Br)c1)c1cc(Br)c(OCCO)c(Br)c1 .
Result :: YES

Query :: Which outcome was assigned to CCCCC(CC)COCC1CO1 (stereo not drawn) in this test?
Result :: NO

Query :: For this molecule, state the assay outcome: CCCCNc1ccc(NCCCC)c2c1C(=O)c1ccccc1C2=O
Result :: YES

Query :: Please share the test call associated with COCc1c(C(C)C)nc(C(C)C)c(/C=C/[C@@H](O)C[C@@H](O)CC(=O)O)c1-c1ccc(F)cc1 .
Result :: YES

Query :: I would be grateful if you could indicate the recorded call for COc1ccc2nc(N)sc2c1 .
Result :: NO

Query :: Which outcome was entered for the molecule O=Nc1ccc(O)cc1 in this test?
Result :: NO

Query :: Dear colleague, could you share the recorded outcome for C=CCOc1c(Br)cc(Br)cc1Br when you have a moment?
Result :: YES

Query :: For this molecule, state the assay outcome: O=c1c2ccccc2oc2ccccc12
Result :: NO

Query :: Which outcome was assigned to c1ccc(-c2ccccn2)nc1 in this test?
Result :: YES

Query :: What was the test verdict on S=C(NC1CCCCC1)NC1CCCCC1 ?
Result :: NO

Query :: Please share the test call associated with C#CC1(O)CC[C@H]2[C@@H]3CCC4=CCCC[C@@H]4[C@H]3CC[C@@]21C (stereo partly drawn) .
Result :: YES

Query :: Look up the recorded call for N#[N+]c1ccc2c(S(=O)(=O)[O-])cccc2c1O in this test.
Result :: NO
